Biological target: T1, PUF4 RNA-binding domain (Saccharomyces cerevisiae, UniProt P25339 537-888)
T1 sequence: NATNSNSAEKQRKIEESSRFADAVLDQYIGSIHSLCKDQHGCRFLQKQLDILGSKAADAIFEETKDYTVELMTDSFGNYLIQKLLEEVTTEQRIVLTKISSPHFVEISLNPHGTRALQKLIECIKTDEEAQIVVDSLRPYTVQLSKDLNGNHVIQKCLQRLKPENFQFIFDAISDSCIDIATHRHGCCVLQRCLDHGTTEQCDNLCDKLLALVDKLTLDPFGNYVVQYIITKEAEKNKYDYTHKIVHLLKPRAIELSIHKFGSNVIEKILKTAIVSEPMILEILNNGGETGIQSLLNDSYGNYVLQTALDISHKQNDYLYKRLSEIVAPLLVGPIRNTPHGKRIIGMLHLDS
Experiment: Mg; RNA-MaP; 20 mM Na-HEPES pH 7.4, 30 mM KOAc, 0.75 mM MgCl2, 0.1% Tween-20, 5% glycerol, 0.1 mg/mL BSA, 2 mM DTT; 25 C; 0.0125-409.6 nM protein
Details: tags: N-His6-TEV cleaved; C-SNAP kept, Cy3B-labelled; label: tethered on chip by stalled RNA polymerase
Attribute Measured: Kd (nM)
One number for each entry, in nM.

| Binder | Test Value |
| --- | --- |
| UCUCUUUGUAAUCUAUCUCUU (ssRNA) [Ic_S1_P4E.1_K4.1_C4.1_H4.1_A4.1_[T5A]_[A6T]_[T7C]_F4.1_T4.1] | 8.88 |
| Ic_S2_P5E.1_K5.1_C5.1_H5.1_A5.1_[T5C]_[T6A]_[A7G]_F5.1_[T9C]_[A10C]_T5.1 (ssRNA) RNA: UUUGAUUAAUAUGAUAUCGUUCUUUCUUGUACAGUCCUUCUUUCUCGAUAUCAUAUUAAUCUUU | 13.5 |

Now let's try a different one.
Recorded Kd of UCUCUUUGUAAACGCUUCUCUU (ssRNA) [Ic_S1_P5E.1_K5.1_C5.1_H5.1_A5.1_[T5A]_[T6A]_[A7C]_F5.1_[T8G]_[T9C]_[A10T]_T5.1] , please.
854
